Reference source for all entries: the NIST ThermoML archive (doi:10.1016/j.jct.2017.06.008)

experiment: refractive index (Na D-line) (dimensionless); settings: 313.15 K; 100 kPa; Liquid; Standard Abbe refractometry
reported-property: refractive index

[[record]]
compound = "C[S+](C)[O-] [dimethyl sulfoxide]"
experimental_result = 1.47

[[record]]
compound = "CC#N"
experimental_result = 1.334

[[record]]
compound = "C1CCCCC1"
experimental_result = 1.415

[[record]]
compound = "CC(=O)CC(C)C"
experimental_result = 1.387

[[record]]
compound = "CC(C)=O"
experimental_result = 1.348


----------
details: 303.15 K; 100 kPa; Liquid; Vibrating tube method
Numbers after ± are expanded uncertainties.
reported-property: mass density

[[record]]
compound = "CC(=O)CC(C)C"
reported_property = "mass density"
experimental_result = "792 ± 3 kg/m3"

[[record]]
compound = "CC(C)=O"
reported_property = "mass density"
experimental_result = "779 ± 3 kg/m3"

[[record]]
compound = "C1CCCCC1"
reported_property = "mass density"
experimental_result = "769 ± 3 kg/m3"

[[record]]
compound = "C[S+](C)[O-] [dimethyl sulfoxide]"
reported_property = "mass density"
experimental_result = "1090 ± 3 kg/m3"

[[record]]
compound = "CC#N"
reported_property = "mass density"
experimental_result = "771 ± 3 kg/m3"


----------
refractive index values by entry
test: refractive index (Na D-line) (dimensionless); details: 293.15 K; 100 kPa; Liquid; Standard Abbe refractometry
reported-property: refractive index

[[record]]
molecular_string = "CC(=O)CC(C)C"
reported_property = "refractive index"
experimental_result = 1.396

[[record]]
molecular_string = "CC#N"
reported_property = "refractive index"
experimental_result = 1.344

[[record]]
molecular_string = "C1CCCCC1"
reported_property = "refractive index"
experimental_result = 1.426

[[record]]
molecular_string = "CC(C)=O"
reported_property = "refractive index"
experimental_result = 1.359


----------
details: 303.15 K; 100 kPa; Liquid; Frequency=3 MHz; Single path-length method
reported-property: speed of sound (m/s)

[[record]]
compound = "CC(C)=O"
unit_label = "m/s"
experimental_result = 1139.4

[[record]]
compound = "C[S+](C)[O-] [dimethyl sulfoxide]"
unit_label = "m/s"
experimental_result = 1471

[[record]]
compound = "CC(=O)CC(C)C"
unit_label = "m/s"
experimental_result = 1171.4

[[record]]
compound = "CC#N"
unit_label = "m/s"
experimental_result = 1258.8

[[record]]
compound = "C1CCCCC1"
unit_label = "m/s"
experimental_result = 1230.1

